System: ATP;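 further: ATP exposure 15 min at 22 °C before imaging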
Test: switch fluorescence ratio, 500 uM ATP over buffer (Cy3 cluster intensity, sum of 5 cycles each) (fold (ratio)); higher = stronger signal-on switching upon ATP binding; sequences stand for … in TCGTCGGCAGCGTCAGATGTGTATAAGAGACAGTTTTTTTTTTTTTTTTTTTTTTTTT…TC
Conditions: aptamer strand: ATP DNA aptamer (quencher-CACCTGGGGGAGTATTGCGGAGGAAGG + anchor), 100 nM annealed; ATP concentration: 500 uM
# key: entry, value: switch fluorescence ratio
Write no unit; give the number alone.

Answered examples (5):
CATGATTATG : 0.972
TTTTATGTTC : 1.01
AAGGGGCGGG : 0.952
ACCGATGCAC : 4.12
CTGGGGTAGG : 1.04

Which switch fluorescence ratio is listed for TTGTCGGTTT ? 0.983

Which switch fluorescence ratio is listed for CGGGTTTGGA ? 0.998

Which switch fluorescence ratio is listed for TTGGGGACCC ? 1.03

Which switch fluorescence ratio is listed for ACGCGGCGTG ? 0.982

Which switch fluorescence ratio is listed for TCTTGATTTT ? 1
